Ref: patent US6740642B2

Tested on: H. influenzae 3201
Assay: MIC, agar dilution, HTM medium
Type: cell-based, Haemophilus influenzae
Conditions: Haemophilus influenzae, read-out: MIC
Measurement Label: MIC (mg/L)

| Molecule | MIC (mg/L) |
| --- | --- |
| CC[C@H]1OC(=O)[C@H](C)[C@@H](O[C@H]2C[C@@](C)(OC)[C@@H](O)C(C)O2)[C@H](C)[C@@H](O[C@@H]2OC(C)C[C@H](N(C)C)[C@H]2O)[C@](C)(O)C[C@@H](C)CN(C)C(C)C(O)[C@]1(C)O (some centres unmarked) [Azithromycin (3), azithromycin] | 2 |
| CC[C@H]1OC(=O)[C@H](C)[C@@H](O[C@H]2C[C@@](C)(OC)[C@@H](O)[C@H](C)O2)[C@H](C)[C@@H](O[C@@H]2O[C@H](C)C[C@H](N(C)C)[C@H]2O)[C@](C)(O)C[C@@H](C)C(=O)[C@H](C)[C@@H](O)[C@]1(C)O [Erythromycin (1), erythromycin A] | 4 |
| CC[C@H]1OC(=O)[C@H](C)C(=O)[C@H](C)[C@@H](O[C@@H]2O[C@H](C)C[C@H](N(C)C)[C@H]2O)[C@](C)(OC)C[C@@H](C)C(=O)[C@H](C)[C@H]2[C@H](SCCn3cc(C)c(=O)[nH]c3=O)C(=O)O[C@@]21C [Compound I-7] | 4 |
| CC[C@H]1OC(=O)[C@H](C)[C@@H](O[C@H]2C[C@@](C)(OC)[C@@H](O)[C@H](C)O2)[C@H](C)[C@@H](O[C@@H]2O[C@H](C)C[C@H](N(C)C)[C@H]2O)[C@](C)(OC)C[C@@H](C)C(=O)[C@H](C)[C@@H](O)[C@]1(C)O [Clarithromycin (2), clarithromycin] | 16 |
| CC[C@H]1OC(=O)[C@H](C)C(=O)[C@H](C)[C@@H](O[C@@H]2O[C@H](C)C[C@H](N(C)C)[C@H]2O)[C@](C)(OC)C[C@@H](C)C(=O)[C@H](C)[C@H]2N(CCCCn3cnc(-c4cccnc4)c3)C(=O)O[C@]12C [Telithromycin (4), telithromycin] | 4 |

----------
Here's a batch of compounds along with measured MIC for St. pneumoniae 12288.
Measurement Label: MIC (µg/mL)

[P] CC[C@H]1OC(=O)[C@H](C)C(=O)[C@H](C)[C@@H](O[C@@H]2O[C@H](C)C[C@H](N(C)C)[C@H]2O)[C@](C)(OC)C[C@@H](C)C(=O)[C@H](C)[C@H]2[C@H](SCCCc3ccccn3)C(=O)O[C@@]21C
[Q] CC[C@H]1OC(=O)[C@H](C)C(=O)[C@H](C)[C@@H](O[C@@H]2O[C@H](C)C[C@H](N(C)C)[C@H]2O)[C@](C)(OC)C[C@@H](C)C(=O)[C@H](C)[C@H]2[C@H](S(=O)(=O)CCCc3ccccc3)C(=O)O[C@@]21C
-- ask Thinking about recorded MIC values, which is higher, P or Q ? Answer by stating the label of the chosen item.
-- reply Q

[1] CC[C@H]1OC(=O)[C@H](C)C(=O)[C@H](C)[C@@H](O[C@@H]2O[C@H](C)C[C@H](N(C)C)[C@H]2O)[C@](C)(OC)C[C@@H](C)C(=O)[C@H](C)[C@H]2[C@H](SCCn3ccc(-c4cccnc4)n3)C(=O)O[C@@]21C
[2] CC[C@H]1OC(=O)[C@H](C)C(=O)[C@H](C)[C@@H](O[C@@H]2O[C@H](C)C[C@H](N(C)C)[C@H]2O)[C@](C)(OC)C[C@@H](C)C(=O)[C@H](C)[C@H]2[C@H](SCCc3ccccn3)C(=O)O[C@@]21C
-- ask // select label with min value of measured MIC from [ 1 , 2 ] Answer by stating the label of the chosen item.
-- reply 1
